Values from patent US20230373934A1

experiment: Microsomal stability assay, liver microsome half-life (monkey); format: in vitro ADME; details: pH 7.4; monkey liver microsomes 0.5 mg/mL + NADPH, 1 μM compound, 37° C; read-out: Liver microsome + NADPH T½ (min) Monkey
resultType: half-life at 1 μM

Reported half-life at 1 μM ( CS(=O)(=O)Nc1ccc2cc(-c3ccc(Oc4cc(Cl)c(OCCCl)c(C#N)c4)cc3)cnc2n1 ) = > 120 min

Reported half-life at 1 μM ( CS(=O)(=O)Nc1nc2ccc(-c3ccc(Oc4cc(Cl)c(OC5CC5)c(C#N)c4)cc3)cc2cc1F ) = > 120 min

Reported half-life at 1 μM ( CS(=O)(=O)NC1CN(c2cnc(-c3ccc(Oc4cc(Cl)c(OCCCl)c(C#N)c4)cc3)cn2)C1 ) = 117 min

----------
target: androgen receptor (AR) (Homo sapiens, UniProt P10275, T878A); construct: endogenous in cells; experiment: Androgen-induced PSA-luciferase assay, Luciferase Assay A (LNCaP transiently transfected with PSA (6.1 kb)-luciferase reporter); details: LNCaP cells, 1 h pretreatment, R1881 (1 nM) 24 h, read-out: PSA-Luc IC50 Range
Sequence (P10275 whole entry T878A): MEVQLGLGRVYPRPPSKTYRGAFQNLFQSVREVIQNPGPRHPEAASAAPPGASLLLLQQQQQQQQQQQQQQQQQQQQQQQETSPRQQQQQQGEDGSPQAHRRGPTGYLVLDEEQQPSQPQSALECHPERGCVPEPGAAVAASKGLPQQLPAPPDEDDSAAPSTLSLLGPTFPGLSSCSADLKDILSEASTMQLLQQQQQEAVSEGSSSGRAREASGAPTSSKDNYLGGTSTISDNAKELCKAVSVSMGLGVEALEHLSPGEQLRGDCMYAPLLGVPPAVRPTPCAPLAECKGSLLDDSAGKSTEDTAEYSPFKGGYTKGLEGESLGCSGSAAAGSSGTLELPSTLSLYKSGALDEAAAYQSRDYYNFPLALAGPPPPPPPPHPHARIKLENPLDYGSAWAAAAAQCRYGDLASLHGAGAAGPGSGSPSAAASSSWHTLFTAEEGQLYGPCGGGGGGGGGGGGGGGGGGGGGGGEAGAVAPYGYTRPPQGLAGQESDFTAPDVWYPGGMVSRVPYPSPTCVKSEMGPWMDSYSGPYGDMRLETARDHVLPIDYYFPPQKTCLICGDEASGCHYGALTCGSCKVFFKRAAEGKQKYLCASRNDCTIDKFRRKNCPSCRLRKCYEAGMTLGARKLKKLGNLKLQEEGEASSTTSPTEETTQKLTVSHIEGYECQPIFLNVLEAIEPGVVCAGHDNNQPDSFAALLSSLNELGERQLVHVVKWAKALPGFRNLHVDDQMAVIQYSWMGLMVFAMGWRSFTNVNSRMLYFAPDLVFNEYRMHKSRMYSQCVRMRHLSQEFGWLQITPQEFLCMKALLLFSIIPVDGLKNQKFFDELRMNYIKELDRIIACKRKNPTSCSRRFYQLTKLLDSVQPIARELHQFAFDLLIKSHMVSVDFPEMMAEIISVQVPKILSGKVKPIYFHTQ
resultType: IC50

Solved entries:
CC(C)(c1ccc(OCc2ccnc(NS(C)(=O)=O)n2)cc1)c1cc(Cl)c(N2CCN(CC(F)(F)F)CC2)c(C#N)c1 [Compound A134] ... 0.5 to 2 µM
CC(C)(c1ccc(Oc2ccnc(CNS(C)(=O)=O)n2)cc1)c1cc(Cl)c(OCCCl)c(C#N)c1 [Compound A85] ... 0.5 to 2 µM
CS(=O)(=O)Nc1cnc2cc(-c3ccc(Oc4cc(Cl)c(OC5CC5)c(C#N)c4)cc3)ccc2n1 [Compound A97] ... 0.5 to 2 µM
CC(C)(c1ccc(OCc2ccnc(NS(C)(=O)=O)n2)cc1)c1cc(Cl)c(OCCCOC(=O)Nc2ccccc2)c(C#N)c1 [Compound A139] ... 0.5 to 2 µM
CC(C)(c1ccc(N2CCN(C3CC(NS(C)(=O)=O)C3)CC2)cc1)c1cc(Cl)c(OCCCl)c(C#N)c1 (stereo not shown) [Compound A48] ... > 2 µM
CC(C)(c1ccc(-c2cnn(C34CC(NS(C)(=O)=O)(C3)C4)c2)cc1)c1cc(Cl)c(OCCCl)c(C#N)c1 [Compound A75] ... 0.5 to 2 µM

Reported IC50 ( CC(C)(c1ccc(N2CCC(N3CC(NS(C)(=O)=O)C3)CC2)cc1)c1cc(Cl)c(OCCCl)c(C#N)c1 [Compound A47] ) = > 2 µM

Reported IC50 ( CC(C)(c1ccc(-c2ccc(N3CC(NS(C)(=O)=O)C3)nc2)cc1)c1cc(Cl)c(OCCCl)c(C#N)c1 [Compound A11] ) = 0.5 to 2 µM

Reported IC50 ( CC(C)(c1ccc(-c2ccc(CNS(C)(=O)=O)nc2)cc1)c1cc(Cl)c(OCCCl)c(C#N)c1 [Compound A1] ) = 0.5 to 2 µM

Reported IC50 ( CC(C)(c1ccc(-c2cnc(N3CC(CNS(C)(=O)=O)C3)nc2)cc1)c1cc(Cl)c(OCCCl)c(C#N)c1 [Compound A95] ) = 0.5 to 2 µM

Reported IC50 ( CC(C)(c1ccc(OC[C@H]2CC[C@H](NS(C)(=O)=O)CC2)cc1)c1cc(Cl)c(OCCCl)c(C#N)c1 [Compound A63] ) = 0.5 to 2 µM

Reported IC50 ( CC(C)(c1ccc(OCc2ccnc(NS(=O)(=O)c3ccccn3)n2)cc1)c1cc(Cl)c(OCCCl)c(C#N)c1 [Compound A110] ) = 0.5 to 2 µM

Reported IC50 ( Cn1cnc(S(=O)(=O)Nc2nccc(COc3ccc(C(C)(C)c4cc(Cl)c(OCCCl)c(C#N)c4)cc3)n2)c1 [Compound A107] ) = > 2 µM

Reported IC50 ( CC(C)(c1ccc(Oc2ccnc(N3CC(NS(C)(=O)=O)C3)n2)cc1)c1cc(Cl)c(OCCCl)c(C#N)c1 [Compound A87] ) = 0.5 to 2 µM

Reported IC50 ( CS(=O)(=O)Nc1cnc2cc(-c3ccc(Nc4cc(Cl)c(OCCCl)c(C#N)c4)cc3)ccc2n1 [Compound A27] ) = > 2 µM

Reported IC50 ( CC(C)(c1ccc(OCc2ccnc(NS(C)(=O)=O)n2)cc1)c1cc(Cl)c(CN2CCCC(F)(F)C2)c(Cl)c1 [Compound A160] ) = > 2 µM

Reported IC50 ( CC(C)(c1ccc(OCc2ccnc(NS(C)(=O)=O)n2)cc1)c1cc(Cl)c(OC2COC2)c(C#N)c1 [Compound A56] ) = > 2 µM

Reported IC50 ( CC(C)(c1ccc(OCc2ccc(F)c(NS(C)(=O)=O)c2)cc1)c1cc(Cl)c(OCCCl)c(C#N)c1 [Compound A131] ) = 0.5 to 2 µM

Reported IC50 ( CS(=O)(=O)NC1CN(c2ccc(-c3ccc(Oc4cc(Cl)c(OCCCl)c(C#N)c4)cc3)cn2)C1 [Compound A38] ) = 0.5 to 2 µM
